B1: library; numbered along this chain (parent)
chain: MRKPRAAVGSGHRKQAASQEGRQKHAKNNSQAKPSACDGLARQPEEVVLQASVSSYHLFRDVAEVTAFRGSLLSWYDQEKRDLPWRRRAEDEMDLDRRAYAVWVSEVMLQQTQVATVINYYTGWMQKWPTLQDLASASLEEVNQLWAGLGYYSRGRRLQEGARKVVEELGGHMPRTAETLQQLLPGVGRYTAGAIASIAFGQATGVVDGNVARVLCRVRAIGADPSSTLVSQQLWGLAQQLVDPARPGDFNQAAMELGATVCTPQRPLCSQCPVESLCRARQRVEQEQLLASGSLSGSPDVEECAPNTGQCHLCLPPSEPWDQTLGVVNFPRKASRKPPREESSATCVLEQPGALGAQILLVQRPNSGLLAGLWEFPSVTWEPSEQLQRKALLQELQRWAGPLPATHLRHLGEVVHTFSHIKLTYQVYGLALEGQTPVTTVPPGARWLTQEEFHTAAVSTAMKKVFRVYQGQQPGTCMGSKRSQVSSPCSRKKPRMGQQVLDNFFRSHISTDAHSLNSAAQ

- Variants of: B1
- run-description: 8OG:A repair function score (normalized; synonymous = 0, nonsense = -1) (normalized log-likelihood score); higher = more repair activity (WT-like);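 note: cells sorted at 72 h after reporter transfection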
- stated-conditions: with 8OG:A DNA repair reporter (GFP) in HEK-293 MUTYH KO cells
This section presents variants with their documented 8OG:A repair function score values.
parameter-measured: 8OG:A repair function score

[
  {
    "variant-identifier": "G236D",
    "observed-value": 0.156
  },
  {
    "variant-identifier": "L241E",
    "observed-value": -0.98
  },
  {
    "variant-identifier": "A280R",
    "observed-value": -0.814
  },
  {
    "variant-identifier": "E275N",
    "observed-value": -0.00161
  },
  {
    "variant-identifier": "L109V",
    "observed-value": -0.838
  },
  {
    "variant-identifier": "L131H",
    "observed-value": -0.283
  },
  {
    "variant-identifier": "L448S",
    "observed-value": -0.184
  },
  {
    "variant-identifier": "H410R",
    "observed-value": 0.0868
  },
  {
    "variant-identifier": "E350T",
    "observed-value": 0.0414
  },
  {
    "variant-identifier": "G70A",
    "observed-value": -0.0222
  },
  {
    "variant-identifier": "P225F",
    "observed-value": -0.222
  },
  {
    "variant-identifier": "T191A",
    "observed-value": -0.325
  },
  {
    "variant-identifier": "V166K",
    "observed-value": -0.116
  },
  {
    "variant-identifier": "A238Y",
    "observed-value": -0.881
  },
  {
    "variant-identifier": "V274E",
    "observed-value": -0.423
  },
  {
    "variant-identifier": "G353L",
    "observed-value": -0.135
  },
  {
    "variant-identifier": "T455F",
    "observed-value": -0.273
  },
  {
    "variant-identifier": "E160G",
    "observed-value": -0.116
  },
  {
    "variant-identifier": "Y425T",
    "observed-value": -0.255
  },
  {
    "variant-identifier": "M173C",
    "observed-value": -0.257
  },
  {
    "variant-identifier": "K80H",
    "observed-value": 0.00371
  },
  {
    "variant-identifier": "V114I",
    "observed-value": -0.181
  },
  {
    "variant-identifier": "A199M",
    "observed-value": -0.87
  },
  {
    "variant-identifier": "S367R",
    "observed-value": -0.201
  },
  {
    "variant-identifier": "L411I",
    "observed-value": 0.148
  },
  {
    "variant-identifier": "Q363V",
    "observed-value": -0.293
  },
  {
    "variant-identifier": "T116C",
    "observed-value": -0.0685
  },
  {
    "variant-identifier": "L131W",
    "observed-value": -1.21
  },
  {
    "variant-identifier": "L408V",
    "observed-value": -0.347
  },
  {
    "variant-identifier": "Q110S",
    "observed-value": -1.26
  },
  {
    "variant-identifier": "E451V",
    "observed-value": -0.135
  },
  {
    "variant-identifier": "S459F",
    "observed-value": -0.45
  },
  {
    "variant-identifier": "A519W",
    "observed-value": 0.00269
  },
  {
    "variant-identifier": "C216T",
    "observed-value": -0.335
  },
  {
    "variant-identifier": "R86N",
    "observed-value": -1.17
  },
  {
    "variant-identifier": "Y120F",
    "observed-value": -0.0973
  },
  {
    "variant-identifier": "R340S",
    "observed-value": -0.153
  },
  {
    "variant-identifier": "F330N",
    "observed-value": -1.18
  },
  {
    "variant-identifier": "P185E",
    "observed-value": -0.168
  },
  {
    "variant-identifier": "Q521H",
    "observed-value": 0.0162
  },
  {
    "variant-identifier": "N329L",
    "observed-value": -0.301
  },
  {
    "variant-identifier": "E395T",
    "observed-value": -0.194
  },
  {
    "variant-identifier": "F418D",
    "observed-value": -1.06
  },
  {
    "variant-identifier": "S231K",
    "observed-value": 0.154
  },
  {
    "variant-identifier": "Q388D",
    "observed-value": 0.0946
  },
  {
    "variant-identifier": "Q386L",
    "observed-value": 0.304
  },
  {
    "variant-identifier": "Q435I",
    "observed-value": 0.00734
  },
  {
    "variant-identifier": "L373P",
    "observed-value": -1.03
  },
  {
    "variant-identifier": "L373F",
    "observed-value": 0.16
  },
  {
    "variant-identifier": "P244L",
    "observed-value": -0.398
  },
  {
    "variant-identifier": "C262I",
    "observed-value": -1.12
  },
  {
    "variant-identifier": "Y120R",
    "observed-value": -0.0662
  },
  {
    "variant-identifier": "W381E",
    "observed-value": 0.244
  },
  {
    "variant-identifier": "P339M",
    "observed-value": -0.0671
  },
  {
    "variant-identifier": "R266V",
    "observed-value": -0.119
  },
  {
    "variant-identifier": "G412A",
    "observed-value": -0.236
  },
  {
    "variant-identifier": "G356P",
    "observed-value": -0.0644
  },
  {
    "variant-identifier": "G258H",
    "observed-value": -1.65
  },
  {
    "variant-identifier": "V379H",
    "observed-value": -0.391
  },
  {
    "variant-identifier": "L72N",
    "observed-value": -2.41
  },
  {
    "variant-identifier": "V465L",
    "observed-value": -0.379
  },
  {
    "variant-identifier": "L158G",
    "observed-value": -1.15
  },
  {
    "variant-identifier": "V274Q",
    "observed-value": -0.544
  },
  {
    "variant-identifier": "M93Y",
    "observed-value": -0.0084
  },
  {
    "variant-identifier": "A147L",
    "observed-value": -0.207
  },
  {
    "variant-identifier": "W381A",
    "observed-value": 0.0585
  },
  {
    "variant-identifier": "S487D",
    "observed-value": 0.0137
  },
  {
    "variant-identifier": "T204N",
    "observed-value": -0.117
  },
  {
    "variant-identifier": "L268I",
    "observed-value": -0.0493
  },
  {
    "variant-identifier": "S296M",
    "observed-value": -0.0125
  },
  {
    "variant-identifier": "V242N",
    "observed-value": -0.576
  }
]

// provenance: the supplement of paper PMC11908140
